Molecular target: TNKS1 (Homo sapiens)
Construct: GST-tagged Tnks-1 (1023-1327 aa, prepared in-house); made in house
Sequence (O95271 1023-1327): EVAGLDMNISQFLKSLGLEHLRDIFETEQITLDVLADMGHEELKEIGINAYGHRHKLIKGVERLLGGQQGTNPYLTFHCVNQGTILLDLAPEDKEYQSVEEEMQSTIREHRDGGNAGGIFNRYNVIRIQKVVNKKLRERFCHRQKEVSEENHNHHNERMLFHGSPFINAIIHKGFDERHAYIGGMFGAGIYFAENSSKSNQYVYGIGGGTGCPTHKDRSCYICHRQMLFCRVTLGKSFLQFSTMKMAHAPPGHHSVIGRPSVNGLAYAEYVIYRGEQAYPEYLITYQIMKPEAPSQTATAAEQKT
Experiment: TNKS1 activity ELISA (autoparsylation assay)
Format: biochemical
Conditions: GST-tagged Tnks-1 (1023-1327 aa)
property: IC50
State the result as a value with its unit after it.

In [3]: df
Out[3]:
                                inputsmiles  assayresult
0  COc1ccc(C(=O)C2CCN(C(=O)CCCc3nc(C)c(C)c(=O)[nH]3)CC2)cc1       2.6 nM

(Q) I have this compound here, "Cc1cc2c(=O)[nH]c(CCCC(=O)N3CCC(C(=O)c4cnn(C)c4)CC3)nn2c1" , and I need its recorded IC50.
(A) 1 nM

(Q) // query IC50 value for entry "Cn1ccc2c(=O)[nH]c(CCCC(=O)N3CCC(c4nnc(-c5ccccc5)o4)CC3)nc21"
(A) 4.7 nM

(Q) Please look up its IC50: "N#Cc1cc(C2CCN(C(=O)CCCc3nn4cc(F)cc4c(=O)[nH]3)CC2)cnc1N"
(A) 1.7 nM

(Q) For the compound shown here, "COc1ccc(C(=O)C2CCN(C(=O)CCCc3cn4c(C)cnc4c(=O)[nH]3)CC2)cc1" , give the reported IC50.
(A) 0.12 nM

(Q) Would you kindly share the measured IC50 for "O=C(c1ccc(F)cc1)C1CCN(C(=O)CCCc2nn3cccc3c(=O)[nH]2)CC1" ?
(A) 14 nM

(Q) Reported IC50, compound "CC(C)(O)c1ccc(C(=O)C2CCN(C(=O)CCCc3nn4cc(F)cc4c(=O)[nH]3)CC2)cc1" : ____
(A) 7.1 nM

(Q) Name the recorded IC50 for "COc1ccc(C(=O)C2CCN(C(=O)CCCc3nn4cc(F)cc4c(=O)[nH]3)CC2)cc1" .
(A) 0.18 nM

* * *

Molecular target: TNKS2 (Homo sapiens)
Construct: GST-tagged Tnks-2 (873-1166 aa, prepared in-house); made in house
Sequence (Q9H2K2 873-1166): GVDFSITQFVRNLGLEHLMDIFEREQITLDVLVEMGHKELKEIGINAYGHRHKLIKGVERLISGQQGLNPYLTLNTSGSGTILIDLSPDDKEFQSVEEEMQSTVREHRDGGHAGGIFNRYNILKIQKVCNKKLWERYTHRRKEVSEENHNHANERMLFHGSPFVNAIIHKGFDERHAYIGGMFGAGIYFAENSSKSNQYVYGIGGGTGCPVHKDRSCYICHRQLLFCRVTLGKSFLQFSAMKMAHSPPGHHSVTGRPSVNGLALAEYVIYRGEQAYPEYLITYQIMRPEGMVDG
Test: TNKS2 activity ELISA (autoparsylation assay)
Type: biochemical
Conditions: GST-tagged Tnks-2 (873-1166 aa); read-out: IC50 [M] TNKS2 ELISA
Recorded IC50 values for a group of compounds are listed next.
Answer format: numeric, M implied, no suffix.

>>> df
                                inputsmiles            systemname  assayresult
0  Cn1ncc2c(=O)[nH]c(CCCC(=O)N3CCC(C(=O)c4ccc(F)cc4)CC3)nc21  TNKS2 (Homo sapiens)      3.1e-10

(Q) Given the compound "Cn1ncc2c(=O)[nH]c(CCCC(=O)N3CCC(C(=O)c4ccc(C(C)(C)O)cc4)CC3)nc21" , what is its reported IC50?
(A) 4e-09

(Q) So what does the record say about IC50 for "Cc1cc2c(=O)[nH]c(CCCC(=O)N3CCC(c4nnc(-c5ccccc5)o4)CC3)nn2c1" ?
(A) 3.7e-08

(Q) What value of IC50 has been reported for the following compound? "Cc1ccc2c(=O)[nH]c(CCCC(=O)N3CCC(c4nnc(-c5ccccc5)o4)CC3)nn12"
(A) 9.3e-10

* * *

Biological target: PARP-1 (Homo sapiens)
Construct: purchased Enzo Life Sciences GmbH, Lörrach, Germany
Sequence (P09874 whole entry): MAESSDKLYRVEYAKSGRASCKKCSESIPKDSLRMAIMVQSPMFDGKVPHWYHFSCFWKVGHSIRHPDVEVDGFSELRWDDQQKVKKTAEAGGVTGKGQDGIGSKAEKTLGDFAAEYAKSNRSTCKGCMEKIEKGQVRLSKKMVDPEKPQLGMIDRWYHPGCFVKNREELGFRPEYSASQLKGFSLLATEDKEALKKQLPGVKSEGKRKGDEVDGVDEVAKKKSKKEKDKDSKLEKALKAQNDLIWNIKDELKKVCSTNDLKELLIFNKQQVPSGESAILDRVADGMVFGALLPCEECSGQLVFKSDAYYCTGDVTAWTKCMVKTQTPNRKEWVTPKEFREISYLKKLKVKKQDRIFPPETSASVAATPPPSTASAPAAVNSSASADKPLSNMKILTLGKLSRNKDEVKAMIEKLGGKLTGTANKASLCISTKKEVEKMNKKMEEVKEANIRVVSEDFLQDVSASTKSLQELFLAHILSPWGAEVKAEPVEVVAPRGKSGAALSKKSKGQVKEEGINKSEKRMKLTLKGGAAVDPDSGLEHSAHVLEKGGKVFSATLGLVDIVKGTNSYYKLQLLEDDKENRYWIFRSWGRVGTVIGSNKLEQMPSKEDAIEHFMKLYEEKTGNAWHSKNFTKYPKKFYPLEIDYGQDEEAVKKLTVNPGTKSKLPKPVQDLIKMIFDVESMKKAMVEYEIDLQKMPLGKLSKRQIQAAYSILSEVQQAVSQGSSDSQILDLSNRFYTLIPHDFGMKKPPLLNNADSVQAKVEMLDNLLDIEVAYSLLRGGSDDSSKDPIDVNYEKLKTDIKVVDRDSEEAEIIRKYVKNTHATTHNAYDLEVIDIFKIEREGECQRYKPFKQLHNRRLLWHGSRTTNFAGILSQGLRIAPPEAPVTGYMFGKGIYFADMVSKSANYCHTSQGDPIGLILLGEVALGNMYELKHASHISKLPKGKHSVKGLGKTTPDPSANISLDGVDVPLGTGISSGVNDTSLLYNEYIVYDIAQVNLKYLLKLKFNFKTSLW
Test: PARP-1 autoparsylation assay (HTRF)
Assay type: biochemical
Conditions: His-tagged Parp-1, autoparsylation HTRF
Structures can show the parent of a compound that is named as a salt.
Categories are assigned from the measured IC50 using these intervals: Low = under 0.3 µM, Mid = from 0.3 µM up to 4 µM, High = 4 µM and over

>>> df
                                   compound             systemname   cat
0  Cc1ccc2c(=O)[nH]c(CCCC(=O)N3CCC(c4nnc(-c5ccccc5)o4)CC3)nn12 [Compound C151]  PARP-1 (Homo sapiens)   Low
1  N#Cc1ccc(OC2CCN(C(=O)CCCc3cn4cccc4c(=O)[nH]3)CC2)cc1 [Compound C5]  PARP-1 (Homo sapiens)  High
2  N#Cc1ccc(OC2CCN(C(=O)CCCc3nn4cccc4c(=O)[nH]3)CC2)cc1 [Compound C141]  PARP-1 (Homo sapiens)   Mid

(Q) Band of Cn1ncc2c(=O)[nH]c(CCCC(=O)N3CCC(c4cnc(N)c(-c5ncccn5)c4)CC3)nc21 [Compound C45] ?
(A) Mid

(Q) In plain terms, what class is Cn1ncc2c(=O)[nH]c(CCCC(=O)N3CCC(C(=O)c4ccc(C(C)(C)O)cc4)CC3)nc21 [Compound C50] ?
(A) High

(Q) # bin label for COc1ccc(C(=O)C2CCN(C(=O)CCCc3nc4c(C)csc4c(=O)[nH]3)CC2)cc1 [Compound C35]
(A) Low

(Q) Class for CCn1cc(C(=O)C2CCN(C(=O)CCCc3nc4c(C)csc4c(=O)[nH]3)CC2)cn1 [Compound C224, trifluoroacetate] ?
(A) Mid

(Q) Kindly identify the class of Cc1csc2c(=O)[nH]c(CCCC(=O)N3CCC(Oc4ccc(C#N)cc4)CC3)nc12 [Compound C130] .
(A) Mid

(Q) Returns: class label. Input: N#Cc1ccc(OC2CCN(C(=O)CCCc3nn4cc(F)cc4c(=O)[nH]3)CC2)cc1 [Compound C174]
(A) Low

(Q) Assign a category based on measured IC50 for Cc1cc2c(=O)[nH]c(CCCC(=O)N3CCC(c4cnc(N)c(-c5ncccn5)c4)CC3)nn2c1 [Compound C161] and give only the class name.
(A) High

(Q) Band for the recorded IC50 of COc1ccc(C(=O)C2CCN(C(=O)CCCc3nc4c(cnn4C)c(=O)[nH]3)CC2)cc1C [Compound C49] ?
(A) High

(Q) Entry Cn1cc(C(=O)C2CCN(C(=O)CCCc3nn4cc(F)cc4c(=O)[nH]3)CC2)cn1 [Compound C179] belongs to which category?
(A) High

* * *

Molecular target: TNKS2 (Homo sapiens)
Construct: GST-tagged Tnks-2 (873-1166 aa, prepared in-house); made in house
Assay: TNKS2 activity ELISA (autoparsylation assay)
Format: biochemical
Conditions: GST-tagged Tnks-2 (873-1166 aa); read-out: IC50 [M] TNKS2 ELISA
Experimental: Description of the TNKS1 and TNKS2 ELISA Assay Biochemical Activity Testing of TNKS 1 and 2: Activity ELISA (Autoparsylation Assay) For analysis of autoparsylation activity of TNKS 1 and 2 an activity ELISA iss performed: In the first step GST tagged TNKS is captured on a Glutathione coated plate. Then the activity assay with biotinylated NAD is performed in the absence/presence of the compounds. […] The amount of biotinylated resp. autoparsylated TNKS is detected with a luminescence substrate for HRP. […]
property: IC50
Provide the measurement as a number trailed by its unit.

Look over these answered cases.
                                inputsmiles  assayresult
0  COc1ccc(C(=O)C2CCN(C(=O)CCCc3nc4c(c(=O)[nH]3)CCCC4)CC2)cc1    4.2e-10 M
1  Nc1ncc(C2CCN(C(=O)CCCc3nn4cccc4c(=O)[nH]3)CC2)cc1-c1ncccn1    2.6e-10 M
2  COc1ccc(C(=O)C2CCN(C(=O)CCCc3cn4cccc4c(=O)[nH]3)CC2)cc1    1.4e-10 M

(Q) IC50 lookup needed for "Cc1csc2c(=O)[nH]c(CCCC(=O)N3CCC(c4nnc(-c5ccccc5)o4)CC3)nc12" , thanks.
(A) 1.8e-09 M

* * *

Measured EC50, listed per entry for reference.
Tested on: Tankyrases
Details: read-out: EC50 [M] TNKS cellular assay; DLD1 cells, 24 hours, Axin2 increase
Where a name gives a salt, the structure may show the parent alone.
State the answer as a number, implicitly in M.

// below: answered compounds
>>> print(df.to_string())
                                   compound  property  unitabbreviation  assayresult
0  COc1ccc(C(=O)C2CCN(C(=O)CCCc3nc(C(C)C)cc(=O)[nH]3)CC2)cn1 [Compound C256, trifluoroacetate]      EC50                 M      2.6e-06
1  Cn1cc(C(=O)C2CCN(C(=O)CCCc3nc4c(c(=O)[nH]3)CCCC4)CC2)cn1      EC50                 M      4.7e-08
2  Cc1nc(CCCC(=O)N2CCC(C(=O)c3ccc(F)cc3)CC2)[nH]c(=O)c1C      EC50                 M      5.8e-07
3  Cc1cc2c(=O)[nH]c(CCCC(=O)N3CCC(C(=O)c4ccc(F)cc4)CC3)nn2c1      EC50                 M      2.5e-08

Could you now consider this next compound?
(Q) For "Cc1scc2c(=O)[nH]c(CCCC(=O)N3CCC(c4nnc(-c5ccccc5)o4)CC3)nc12" , what is its reported EC50?
(A) 1.3e-07
